Where do the numbers come from? From the supplement of paper PMC10567573.

Experiment: protein stability index of a GFP-peptide fusion (GPS, HEK-293T) (PSI 1-6); higher = more stable;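 also: 24-mer peptide tiles fused after GFP, lentivirally expressed, FACS-sorted into six equal bins by GFP/DsRed ratio, decoded by Illumina sequencing, PSI is the read-weighted mean bin number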
Conditions: treatment: MLN4924 1 uM, 8 h; c terminus: a fixed tail appended
Test Readout: protein stability index
# print the numeric value only

These recorded examples may help you get a feel for the data.
HETRLVEVDSGRQIEYEYKLAQAL [LMNB1] : 3.96
GSGGTRGPPSRGGHMDDGGYSMNF [RBMX] : 4
DLYNWEVAIFGPPNTLYEGGYFKA [UBE2R2] : 2.32
HPNIITLHDIFENKTDVVLILELV [DAPK3] : 2.34
VRRTDDTPVVLVGNKSDLKQLRQV [RIT1] : 3.6

Incoming: What value of protein stability index has been reported for the following sequence? KCDSLKEECIPEHMVRESKIMEAE [FAN1]
Outgoing: 5

Incoming: // query: DLSSLRAKYPHDVVNHLSCDEARN [SPACA9]
Outgoing: 4.33

Incoming: // query: LFSLKESPEKFQIEANFPRRVLPC [FAF2]
Outgoing: 2.84

Incoming: // query: GDDQPSETDHLSMEEEDPMPRQIS [TPRG1]
Outgoing: 5.64

Incoming: // query: ENILMCVDDAYVRRMAAEATEWQK [SRPK2]
Outgoing: 3.55

Incoming: // query: MAGAIAQGLIRAGKVEAQHILASA [PYCR3]
Outgoing: 2.31

###

Assay: protein stability index of a GFP-peptide fusion (GPS, HEK-293T) (PSI 1-6); higher = more stable
Details: treatment: DMSO; c terminus: a fixed tail appended
Classification field: criterion met = protein stability index at or over 3; criterion not met = protein stability index under 3.

Completed entries (count: 5):
SEGLVGALMHVMQKRSRAIHSSDE [WAS] : criterion met
LTCDSAQKCHSIGETDEVTKTEDR [ZSCAN9] : criterion met
YVYKAASEGKVLTLAALLLNRSES [FEM1B] : criterion not met
PYPVLFHNIFLLGGSSTSERCLLN [NLN] : criterion met
PTMPALFSDHTFRHYAYLRDSLSH [INTS4] : criterion not met

Incoming: Evaluate TTPSTSSSSSFDPSVFDGLGDLLM [SNAP91] : protein stability index at minimum 3?
Outgoing: criterion met

Incoming: // query: SRLRFLNLGRMIDWVPVESLLRPL [ZER1]
Outgoing: criterion not met

Incoming: // query: LEGAQAPLAVEEDASSSTSTSSSF [MAGEA10]
Outgoing: criterion met

Incoming: // query: DELDMSPGDPKWLDVIERDLHRQF [TBC1D10A]
Outgoing: criterion met

Incoming: // query: ADGFGDNPFYHCLVAEILPAPGKL [SAT2]
Outgoing: criterion not met

Incoming: // query: ITWNRVVLLHGPPGTGKTSLCKAL [TRIP13]
Outgoing: criterion not met

###

Assay: protein stability index of a GFP-peptide fusion (GPS, HEK-293T) (PSI 1-6); higher = more stable
Settings: treatment: MLN4924 1 uM, 8 h; c terminus: a fixed tail appended
Classification field: TRUE = protein stability index at or over 3; FALSE = protein stability index under 3.

ITLKYPHYFPVMKKCCIPETRRRM [NLN] : FALSE
GLGHGSTSRGGPWVGTGLAAALAG [CPOX] : TRUE

Incoming: Evaluate HEWKSLAPMDAPRYQHGIAVIGNF [KLHL13] : protein stability index at minimum 3?
Outgoing: FALSE

###

Assay: protein stability index of a GFP-peptide fusion (GPS, HEK-293T) (PSI 1-6); higher = more stable
Conditions: treatment: DMSO; c terminus: a fixed tail appended
Classification field: True = protein stability index at or over 3; False = protein stability index under 3.

Completed entries (count: 5):
LAFPLKHPDSWRAYPFYWAWLPQA [PI4K2A] : False
PVTSIGIDNLGLKLEENLQETHSA [SLC35F2] : True
DAISWYQKKIGAYDQQIWEKSIEQ [PHTF1] : False
QALEKIFLQKVAQMPQEEVELLPP [BRD3] : False
RWALLSCRGKKPSRIYGQAMAIIN [KLHDC10] : False

Incoming: Evaluate FNGNYKVDSPKNFNIAGTVVKYRR [ADAMTSL2] : protein stability index at minimum 3?
Outgoing: True

###

Test: protein stability index of a GFP-peptide fusion (GPS, HEK-293T) (PSI 1-6); higher = more stable
Details: treatment: MLN4924 1 uM, 8 h; c terminus: a fixed tail appended
Test Readout: protein stability index
# print the numeric value only

These recorded examples may help you get a feel for the data.
RWSLISLSNKNGKNVELKFVDSIR [TENT5C] : 2.36
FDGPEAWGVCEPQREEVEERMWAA [ZER1] : 4

Incoming: What value of protein stability index has been reported for the following sequence? LQTLLYFLSDVTAAVKENQMTPTN [DLC1]
Outgoing: 2.12

Incoming: // query: RYTGTTPSPPPGSHYTSPSENMWN [CARM1]
Outgoing: 3.57

Incoming: // query: LNAEAGHLDPGFLASDKTSAGNAP [C18orf25]
Outgoing: 4.98

Incoming: // query: LFKAHFRGEVLPEEITEESLEESV [INTS3]
Outgoing: 4.96

Incoming: // query: ELTFSYIAFDGVVGSGGRRDSTAR [RTN2]
Outgoing: 3.15

Incoming: // query: AFQLLRRFVQAEGRRATLQRLVEA [TRADD]
Outgoing: 2.26

Incoming: // query: QKVLGKALSLIRFPLMTIEEFAAG [BTBD1]
Outgoing: 2.52

###

Assay: protein stability index of a GFP-peptide fusion (GPS, HEK-293T) (PSI 1-6); higher = more stable
Conditions: treatment: MLN4924 1 uM, 8 h; c terminus: a fixed tail appended
Test Readout: protein stability index
# print the numeric value only

VASLPLDQSDEGSSSQKEESPSTL [MAGEA10] : 5.64
QGPTPRYFTWDEVAQRSGCEERWL [FADS1] : 3.39
SRSAAQDLDRMGVMTLPSDLRKHR [PPFIA4] : 5.22
TFFLRTDAETPPRFTRTPVDQTGV [PTPRD] : 3.28
LWGRTQEEAEELAKEMSVPFYTSR [GFOD1] : 3.61

Incoming: What value of protein stability index has been reported for the following sequence? SNLTSNLASLVSQGMIQLALSGAS [RETREG3]
Outgoing: 3.15

Incoming: // query: ASENHGCEHECVNADGSYLCQCHE [MATN2]
Outgoing: 5.49

###

Assay: protein stability index of a GFP-peptide fusion (GPS, HEK-293T) (PSI 1-6); higher = more stable
Conditions: treatment: MLN4924 1 uM, 8 h; c terminus: a fixed tail appended
Catalogue of sequences with associated protein stability index
# print the numeric value only

TSPVLPSLIQLLGRNFILFIIFGT [HACD3] : 2.98

Incoming: What value of protein stability index has been reported for the following sequence? HPDDRPKLNKPPETLITTIDSSSS [CYB5A]
Outgoing: 5.04

Incoming: // query: DSETLDLEEAEGAVGYQPEYSKFC [NFE2L1]
Outgoing: 5.01

###

Experiment: protein stability index of a GFP-peptide fusion (GPS, HEK-293T) (PSI 1-6); higher = more stable
Conditions: treatment: DMSO; c terminus: a fixed tail appended
Catalogue of sequences with associated protein stability index
# print the numeric value only

These recorded examples may help you get a feel for the data.
LKGAFPARLKKVLIVGAPIWFRVP [PTPN9] : 2.96
QVEALAAAGVDHVILAVSYMSQVL [GMPPB] : 2.92
LSMERYALVFGVNTFIALALQTLL [SLC19A2] : 3.04

Turning to the following sequence.
Incoming: What value of protein stability index has been reported for the following sequence? GIFEESFIEERRQGLEQFINKIAG [SNX12]
Outgoing: 2.98

###

Experiment: protein stability index of a GFP-peptide fusion (GPS, HEK-293T) (PSI 1-6); higher = more stable
Details: treatment: MLN4924 1 uM, 8 h; c terminus: a fixed tail appended
Catalogue of sequences with associated protein stability index
# print the numeric value only

KHLTARVLCLIVLPLALYTATFAV [POMT2] : 3.15
DYSQLNESTTKESSEASQLEDAAG [FBXO34] : 5.35

Incoming: What value of protein stability index has been reported for the following sequence? YVPSSESFIIYLKNIVIADFVMSL [P2RY14]
Outgoing: 2.74

Incoming: // query: LVLRRQLKNKCCPPPCKFGEGKLS [C22orf31]
Outgoing: 2.52

###

Catalogue of sequences with associated protein stability index
Assay: protein stability index of a GFP-peptide fusion (GPS, HEK-293T) (PSI 1-6); higher = more stable
Conditions: treatment: MLN4924 1 uM, 8 h; c terminus: a fixed tail appended
# print the numeric value only

VKQYLSTTLGPKLASQALTPPPGP [TFE3] : 2.93

Incoming: What value of protein stability index has been reported for the following sequence? GFRLAEDGKRCRRKDVCKSTHHGC [MATN2]
Outgoing: 4.09

Incoming: // query: FRPVSETCTDRSGISTGHWSGEVK [FUT8]
Outgoing: 3.84

Incoming: // query: SDAAFGGILERYWLSSRAAAIKVN [MYORG]
Outgoing: 2.17
